- Experimental Protocol: Cytotoxicity against human HepG2 cells incubated for 48 hrs by CellTiter Glo assay
- Format: cell-based
Observation Type: CC50 at 48 h

CC(C)c1ccc(-c2cc(CN3CCOCC3)nn2C2CCCOC2)cc1 (stereo not given) : > 100 µM
COC1CCN(Cc2cc(-c3ccc(C(C)C)cc3)n(-c3ccc(F)cc3)n2)CC1 : 31.6 µM
CC(C)(C)OC(=O)N1CCN(Cc2cc(-c3ccc(C(F)(F)F)cc3)n(C3CCCCC3)n2)CC1 : > 100 µM
CC(C)c1ccc(-c2cc(CN3CCC(O)CC3)nn2C2CCCCC2)cc1 : 63 µM
COC1CCN(Cc2cc(-c3ccc(C(F)(F)F)cc3)n(C(C)C)n2)CC1 : 79.4 µM

====

- Experimental Protocol: Protection Index, ratio of CC50 for human HepG2 cells to MIC for Mycobacterium tuberculosis H37Rv
- Format: toxicity
- Condition Context: read-out: PI
As shown below, each of these molecules has a reported selectivity ratio value.
Observation Type: selectivity ratio

CC(C)c1ccc(-c2cc(CN3CCN(C(=O)OC(C)(C)C)CC3)nn2-c2ccc(F)cc2)cc1 : 40
FC(F)(F)c1ccc(-c2cc(CN3CCSCC3)nn2C2CCCCC2)cc1 : 53
CC(C)c1ccc(-c2cc(CN3CC[Si](C)(C)CC3)nn2-c2ccc(F)cc2)cc1 : 1360
CC(C)c1ccc(-c2cc(CN3CCN(C(=O)OC(C)(C)C)CC3)nn2C2CCCCC2)cc1 : 40
Cc1c(CN2CCOCC2)nc(-c2ccc(C(C)C)cc2)n1-c1ccc(F)cc1 : 1.25
Fc1ccc(-n2nc(CN3CCSCC3)cc2-c2ccc(C(F)(F)F)cc2)cc1 : 17
Fc1ccc(-n2nc(CN3CCCCC3)cc2-c2ccc(C(F)(F)F)cc2)cc1 : 16
CC(C)c1ccc(-c2cc(CN3CCOCC3)nn2C(C)C)cc1 : 45
Cc1c(CN2CCOCC2)cc(-c2ccc(C(C)C)cc2)n1-c1ccc(F)cc1 : 333
FC(F)(F)c1ccc(-c2cc(CN3CCN(c4ccccn4)CC3)nn2C2CCCCC2)cc1 : 50

====

- Experimental Protocol: Protection Index, ratio of CC50 for human HepG2 cells to MIC for Mycobacterium tuberculosis H37Rv
- Assay type: toxicity
- Condition Context: read-out: PI
As shown below, each of these molecules has a reported selectivity ratio value.
Observation Type: selectivity ratio

COC1CCN(Cc2cc(-c3ccc(C(F)(F)F)cc3)n(C3CCCCC3)n2)CC1 : 26
FC(F)(F)c1ccc(-c2cc(CN3CCCCC3)nn2C2CCCCC2)cc1 : 20
CC(C)c1ccc(-c2cc(CN3CCC(O)CC3)nn2-c2ccc(F)cc2)cc1 : 2
COC1CCN(Cc2cc(-c3ccc(C(C)C)cc3)n(C3CCCOC3)n2)CC1 (centres undefined) : 20
CC(C)c1ccc(-c2cc(CN3CCC(O)CC3)nn2C2CCCCC2)cc1 : 1.5
Fc1ccc(-n2nc(CN3CCN(c4ccccn4)CC3)cc2-c2ccc(C(F)(F)F)cc2)cc1 : 16
CC(C)c1ccc(-c2cc(CN3CCCC(O)C3)nn2-c2ccc(F)cc2)cc1 (centres undefined) : 1.25
COC1CCN(Cc2cc(-c3ccc(C(C)C)cc3)n(C3CCCCC3)n2)CC1 : 21
CC(C)c1ccc(-c2cc(CN3CCCC(O)C3)nn2C(C)C)cc1 (centres undefined) : 50
COC1CCCN(Cc2cc(-c3ccc(C(C)C)cc3)n(-c3ccc(F)cc3)n2)C1 (centres undefined) : 13
CC(C)c1ccc(-c2cc(CN3CCN(c4ccccn4)CC3)nn2C2CCCCC2)cc1 : 80

====

As shown below, each of these molecules has a reported Activity value.
- Study Target: UniProt:P02768
- Sequence (P02768 whole entry): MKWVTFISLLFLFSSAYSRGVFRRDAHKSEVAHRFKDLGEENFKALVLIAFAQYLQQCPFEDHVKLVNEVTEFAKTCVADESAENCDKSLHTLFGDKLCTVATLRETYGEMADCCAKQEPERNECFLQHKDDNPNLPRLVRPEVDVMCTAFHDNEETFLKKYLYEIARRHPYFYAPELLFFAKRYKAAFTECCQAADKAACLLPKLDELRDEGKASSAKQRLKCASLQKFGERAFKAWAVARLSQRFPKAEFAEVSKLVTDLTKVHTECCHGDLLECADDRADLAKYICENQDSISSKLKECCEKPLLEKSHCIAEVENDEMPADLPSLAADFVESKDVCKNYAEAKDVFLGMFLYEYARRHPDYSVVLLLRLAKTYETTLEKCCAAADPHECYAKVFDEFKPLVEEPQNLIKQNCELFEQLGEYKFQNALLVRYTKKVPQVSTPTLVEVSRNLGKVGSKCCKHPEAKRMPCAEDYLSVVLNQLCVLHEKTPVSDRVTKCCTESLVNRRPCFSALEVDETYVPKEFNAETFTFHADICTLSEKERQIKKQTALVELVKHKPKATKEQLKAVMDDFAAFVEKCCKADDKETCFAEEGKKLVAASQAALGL
- Experimental Protocol: Binding affinity to HSA by HPLC analysis
- Type: ADME
- Condition Context: isolated protein
Observation Type: Activity (%)

CC(C)c1ccc(-c2cc(CN3CCOCC3)nn2C2CCCCC2)cc1 : 97.11
CC(C)c1ccc(-c2cc(CN3CC[Si](C)(C)CC3)nn2-c2ccc(F)cc2)cc1 : 97.49
CC(C)c1ccc(-c2cc(CN3CCOCC3)nn2C2CCC2)cc1 : 96.72
C[Si]1(C)CCN(Cc2cc(-c3ccc(C(F)(F)F)cc3)n(C3CCCCC3)n2)CC1 : 96.32
CC(C)c1ccc(-c2cc(CN3CCN(c4ccccn4)CC3)nn2C2CCCCC2)cc1 : 98.41
Cc1c(CN2CCOCC2)cc(-c2ccc(C(C)C)cc2)n1-c1ccc(F)cc1 : 98.37
CC(C)c1ccc(-c2cc(CN3CCN(c4ccccn4)CC3)nn2-c2ccc(F)cc2)cc1 : 98.45
COC1CCN(Cc2cc(-c3ccc(C(C)C)cc3)n(-c3ccc(F)cc3)n2)CC1 : 96.42
COC1CCN(Cc2cc(-c3ccc(C(F)(F)F)cc3)n(-c3ccc(F)cc3)n2)CC1 : 96.47
CC(C)c1ccc(-c2cc(CN3CC[Si](C)(C)CC3)nn2C2CCCCC2)cc1 : 97.35
C[Si]1(C)CCN(Cc2cc(-c3ccc(C(F)(F)F)cc3)n(-c3ccc(F)cc3)n2)CC1 : 96.65

====

As shown below, each of these compounds has a reported selectivity ratio value.
- Experimental Protocol: Protection Index, ratio of CC50 for human HepG2 cells to MIC for Mycobacterium tuberculosis H37Rv
- Type: toxicity
- Condition Context: read-out: PI
Observation Type: selectivity ratio

COC1CCN(Cc2cc(-c3ccc(C(F)(F)F)cc3)n(-c3ccc(F)cc3)n2)CC1 : 105
CC(C)c1ccc(-c2cc(CN3CCOCC3)nn2C2CCCCC2)cc1 : 158
COC1CCCN(Cc2cc(-c3ccc(C(C)C)cc3)n(C3CCCCC3)n2)C1 (stereo unspecified) : 8
COC1CCN(Cc2cc(-c3ccc(C(F)(F)F)cc3)n(C(C)C)n2)CC1 : 32
Cc1cc(CN2CCOCC2)nn1C1CCCCC1 : 20
C[Si]1(C)CCN(Cc2cc(-c3ccc(C(F)(F)F)cc3)n(C3CCCCC3)n2)CC1 : 180
CC(C)c1ccc(-c2cc(CN3CCOCC3)nn2-c2ccc(F)cc2)cc1 : 10
CC(C)c1ccc(-c2cc(CN3CCN(C)CC3)nn2-c2ccc(F)cc2)cc1 : 0.6
Fc1ccc(-n2nc(CN3CCOCC3)cc2-c2ccc(C(F)(F)F)cc2)cc1 : 5
FC(F)(F)c1ccc(-c2cc(CN3CCOCC3)nn2C2CCCCC2)cc1 : 20
CC(C)c1ccc(-c2cc(CN3CCN(C)CC3)nn2C2CCCCC2)cc1 : 0.5
COC1CCN(Cc2cc(-c3ccc(C(C)C)cc3)n(-c3ccc(F)cc3)n2)CC1 : 105
CC(C)c1ccc(-c2cc(CN3CCN(c4ccccn4)CC3)nn2-c2ccc(F)cc2)cc1 : 128
CC(C)c1ccc(-c2cc(CN3CCOCC3)nn2C2CCC2)cc1 : 125
CC(C)c1ccc(-c2cc(CN3CC[Si](C)(C)CC3)nn2C2CCCCC2)cc1 : 315
CC(C)c1ccc(-c2cc(CN3CCSCC3)nn2C2CCCCC2)cc1 : 31

====

- Experimental Protocol: Cytotoxicity against human HepG2 cells incubated for 48 hrs by CellTiter Glo assay
- Assay type: cell-based
As shown below, each of these molecules has a reported CC50 at 48 h value.
Observation Type: CC50 at 48 h (µM)

CC(C)c1ccc(-c2cc(CN3CCOCC3)nn2C2CCCCC2)cc1 : 63.1
Fc1ccc(-n2nc(CN3CCCCC3)cc2-c2ccc(C(F)(F)F)cc2)cc1 : 40
C[Si]1(C)CCN(Cc2cc(-c3ccc(C(F)(F)F)cc3)n(-c3ccc(F)cc3)n2)CC1 : 16
C[Si]1(C)CCN(Cc2cc(-c3ccc(C(F)(F)F)cc3)n(C3CCCCC3)n2)CC1 : 12.6
CC(C)c1ccc(-c2cc(CN3CC[Si](C)(C)CC3)nn2-c2ccc(F)cc2)cc1 : 12.6
FC(F)(F)c1ccc(-c2cc(CN3CCN(c4ccccn4)CC3)nn2C2CCCCC2)cc1 : 50
FC(F)(F)c1ccc(-c2cc(CN3CCCCC3)nn2C2CCCCC2)cc1 : 50
COC1CCCN(Cc2cc(-c3ccc(C(C)C)cc3)n(C3CCCCC3)n2)C1 (stereo not given) : 20
COC1CCN(Cc2cc(-c3ccc(C(C)C)cc3)n(C3CCCCC3)n2)CC1 : 12.6
CC(C)c1ccc(-c2cc(CN3CCN(C)CC3)nn2-c2ccc(F)cc2)cc1 : 12.6
Cc1cc(CN2CCOCC2)nn1C1CCCCC1 : 50

====

As shown below, each of these compounds has a reported Papp at 3 h value.
- Experimental Protocol: Permeability of the compound in pH 7.05 phosphate buffer incubated for 3 hrs by artificial membrane permeability assay based LCMS analysis
- Assay type: ADME
- Condition Context: PAMPA, read-out: permeability
Observation Type: Papp at 3 h (×10⁻⁶ cm/s)

COC1CCN(Cc2cc(-c3ccc(C(F)(F)F)cc3)n(-c3ccc(F)cc3)n2)CC1 : 17
COC1CCN(Cc2cc(-c3ccc(C(C)C)cc3)n(-c3ccc(F)cc3)n2)CC1 : 44
CC(C)c1ccc(-c2cc(CN3CCOCC3)nn2C2CCCCC2)cc1 : 35
CC(C)c1ccc(-c2cc(CN3CCOCC3)nn2C2CCC2)cc1 : 61
